Study system: HLA-A*23:01
Test method notes: IEDB peptide-MHC binding, purified MHC/direct/fluorescence; filed as Kd, often an IC50 or EC50 that approximates it; bounds were set here for any values at or beyond the usual limits of such assays
Condition set: source organism: Entamoeba histolytica HM-1:IMSS
Attribute measured: Kd (µM)
Return type: number; implicit unit µM.

# sequence "QYIHLLCNK" ; its Kd = 0.2

* * *

Study system: HLA-B*53:01
Test method notes: IEDB peptide-MHC binding, purified MHC/competitive/fluorescence; bounds were set here for any values at or beyond the usual limits of such assays
Condition set: source organism: Homo sapiens
Attribute measured: IC50

# sequence "YFYYNAFHWAI" ; its IC50 = ≥ 20 µM

* * *

Study system: HLA-A*24:02
Test method notes: IEDB peptide-MHC binding, purified MHC/competitive/radioactivity; filed as Kd, often an IC50 or EC50 that approximates it; bounds were set here for any values at or beyond the usual limits of such assays
Condition set: source organism: Lassa virus GA391
Attribute measured: pKd
Answer as the number alone; pKd is minus log10 of concentration in mol/L.

# sequence "KDFKCFNLI" ; its pKd = 6.10

* * *

Study system: HLA-B*27:04
Test method notes: IEDB peptide-MHC binding, cellular MHC/competitive/fluorescence; bounds were set here for any values at or beyond the usual limits of such assays
Condition set: source organism: Human herpesvirus 4 strain B95-8
Attribute measured: pIC50
Answer as the number alone; pIC50 is minus log10 of concentration in mol/L.

# sequence "SRRTSRPNR" ; its pIC50 = 5.00

* * *

Study system: HLA-B*08:02
Test method notes: IEDB peptide-MHC binding, purified MHC/competitive/fluorescence; filed as Kd, often an IC50 or EC50 that approximates it; bounds were set here for any values at or beyond the usual limits of such assays
Condition set: source organism: Human immunodeficiency virus 1
pKd: −log10 of the molar value.
Attribute measured: pKd

Record "GTEEIRSLY" ; system HLA-B*08:02; pKd = ≤ 4.70

* * *

Study system: HLA-A*02:01
Test method notes: IEDB peptide-MHC binding, purified MHC/direct/fluorescence; filed as Kd, often an IC50 or EC50 that approximates it; bounds were set here for any values at or beyond the usual limits of such assays
Condition set: source organism: Rickettsia felis
Attribute measured: Kd

Record "GSFKEYVFW" ; system HLA-A*02:01; Kd = ≥ 20 µM

* * *

Study system: HLA-A*24:02
Test method notes: IEDB peptide-MHC binding, purified MHC/competitive/radioactivity; filed as Kd, often an IC50 or EC50 that approximates it; bounds were set here for any values at or beyond the usual limits of such assays
Condition set: source organism: Dengue virus 4 Philippines/H241/1956
Attribute measured: Kd (nM)
Return type: number; implicit unit nM.

# sequence "ISYKDREWCF" ; its Kd = 1020

# sequence "SWILRNPGF" ; its Kd = 369

# sequence "TWMDLLRALI" ; its Kd = 128

# sequence "VFGSVYTTMF" ; its Kd = 1170

* * *

Study system: HLA-A*11:01
Test method notes: IEDB peptide-MHC binding, purified MHC/competitive/fluorescence; bounds were set here for any values at or beyond the usual limits of such assays
Condition set: source organism: Vaccinia virus Copenhagen
Attribute measured: IC50 (µM)
Return type: number; implicit unit µM.

Record "KITFALKKL" ; system HLA-A*11:01; IC50 = 19.3
